test target: 5-hydroxytryptamine receptor 2A (Homo sapiens) (UniProt P28223)
Sequence (P28223 whole entry): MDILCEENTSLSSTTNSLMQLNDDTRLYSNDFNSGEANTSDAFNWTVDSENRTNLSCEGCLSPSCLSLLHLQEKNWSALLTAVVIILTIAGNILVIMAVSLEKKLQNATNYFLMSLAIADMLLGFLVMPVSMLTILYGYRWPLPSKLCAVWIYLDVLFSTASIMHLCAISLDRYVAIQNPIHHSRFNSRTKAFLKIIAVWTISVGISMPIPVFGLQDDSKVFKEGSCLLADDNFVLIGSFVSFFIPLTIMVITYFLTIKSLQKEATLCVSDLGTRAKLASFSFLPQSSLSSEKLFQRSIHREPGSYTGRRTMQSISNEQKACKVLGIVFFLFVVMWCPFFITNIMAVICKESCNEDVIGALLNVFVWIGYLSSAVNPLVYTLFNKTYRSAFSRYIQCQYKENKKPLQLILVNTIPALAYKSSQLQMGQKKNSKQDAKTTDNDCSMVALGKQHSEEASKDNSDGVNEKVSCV
study conditions: Compound concentration 10 µM
Description: PDSP Primary Binding target: HTR2A - Compounds are tested at 10 uM concentration, plate are incubated at room temperature in the dark for 90 minutes. Reaction are stopped by vacuum filtration onto 0.3% polyethyleneimine soaked filter mats using Filtermate harvester. Scintilation cocktail is then melted onto microwave-dried filters on a hot plate and the radio activity is counted in Microbia counter.
Classification by inhibition | ranges: low interval (below 10%), middle interval (10% to below 50%), high interval (50% or more)

Classify this compound: O=C(Nc1ccc(Cl)cc1)Nc1cccc(-c2cccc(N3CCCC3)n2)c1
middle interval

Repeat with COc1ccccc1CN[C@H]1C2CCN(CC2)[C@H]1C(c1ccccc1)c1ccccc1
middle interval

Repeat with CC[C@@H]1CN2C(=O)N(C)c3nc(-c4ccccc4)[nH]c3C2=N1
high interval

Repeat with Cc1cc(C)cc(-c2cnc3cc(Cl)c(-c4cccc(O)c4)cc3c2OCCCN)c1
high interval

Repeat with COc1ccc(S(=O)(=O)c2cc(OC)ccc2S(=O)(=O)c2ccc([C@H](C)NS(C)(=O)=O)cc2)cc1
middle interval

Repeat with Cc1c(OCc2cccc(-c3ccc(C(=O)O)cc3)c2)cc2c(c1C)C(=O)C(C1CCCC1)C2 (centres undefined)
low interval

Repeat with Cc1cc(C)c(N)c(C#Cc2cccc(F)c2)n1
low interval

Repeat with CC1(C)SSC(C)(C)[C@@H](NC(=O)[C@@H](N)Cc2ccc(O)cc2)C(=O)NCC(=O)N[C@@H](Cc2ccccc2)C(=O)N[C@H]1C(=O)O
middle interval

Repeat with CNc1nc(NCc2ccc(NS(C)(=O)=O)cc2Cl)cc(-c2ccccn2)n1
high interval

* * *

test target: UniProtKB P28221
Sequence (P28221 whole entry): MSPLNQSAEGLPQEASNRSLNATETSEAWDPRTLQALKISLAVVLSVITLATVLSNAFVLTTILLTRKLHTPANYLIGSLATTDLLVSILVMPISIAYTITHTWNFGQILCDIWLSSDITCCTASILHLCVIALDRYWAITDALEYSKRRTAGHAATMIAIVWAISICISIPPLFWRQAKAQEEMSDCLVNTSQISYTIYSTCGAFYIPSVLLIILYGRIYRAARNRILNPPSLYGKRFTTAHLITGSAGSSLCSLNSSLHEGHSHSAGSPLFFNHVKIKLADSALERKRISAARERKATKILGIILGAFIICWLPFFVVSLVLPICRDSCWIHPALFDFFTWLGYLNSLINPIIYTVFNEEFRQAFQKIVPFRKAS
study conditions: Compound concentration 10 µM
Description: PDSP Primary Binding target: HTR1D - Compounds are tested at 10 uM concentration, plate are incubated at room temperature in the dark for 90 minutes. Reaction are stopped by vacuum filtration onto 0.3% polyethyleneimine soaked filter mats using Filtermate harvester. Scintilation cocktail is then melted onto microwave-dried filters on a hot plate and the radio activity is counted in Microbia counter.
Please go through the items and note down their inhibition.
Give the number; % is assumed, so skip it.

Please report the recorded inhibition for S=C(NCCCc1c[nH]cn1)NCCCN(Cc1ccc(Cl)c(Cl)c1)c1ccc(Br)cn1 .
149

Repeat with Clc1cccc(COc2cncc(N3CCNCC3)n2)c1
89.1

Repeat with COc1ccc(NC(=O)c2ccc(-c3ccc(-c4noc(C)n4)cc3C)cc2)cc1OCCN(C)C
101

* * *

test target: Alpha-1A adrenergic receptor (Homo sapiens) (UniProt P35348)
Sequence (P35348 whole entry): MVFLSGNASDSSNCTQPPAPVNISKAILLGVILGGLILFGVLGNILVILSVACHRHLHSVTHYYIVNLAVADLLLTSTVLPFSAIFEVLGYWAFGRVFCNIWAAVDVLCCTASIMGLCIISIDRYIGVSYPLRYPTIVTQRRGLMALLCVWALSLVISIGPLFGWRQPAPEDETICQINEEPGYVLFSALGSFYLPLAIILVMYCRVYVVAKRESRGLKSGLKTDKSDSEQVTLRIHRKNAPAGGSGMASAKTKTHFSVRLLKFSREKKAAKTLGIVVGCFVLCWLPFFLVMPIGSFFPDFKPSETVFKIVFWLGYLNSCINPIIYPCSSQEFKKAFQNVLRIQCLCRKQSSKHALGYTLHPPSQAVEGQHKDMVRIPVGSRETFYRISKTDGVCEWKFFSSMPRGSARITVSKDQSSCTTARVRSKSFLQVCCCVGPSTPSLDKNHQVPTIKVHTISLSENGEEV
study conditions: Compound concentration 10 µM
Description: PDSP Primary Binding target: ADRA1A - Compounds are tested at 10 uM concentration, plate are incubated at room temperature in the dark for 90 minutes. Reaction are stopped by vacuum filtration onto 0.3% polyethyleneimine soaked filter mats using Filtermate harvester. Scintilation cocktail is then melted onto microwave-dried filters on a hot plate and the radio activity is counted in Microbia counter.
measure name: inhibition (%)
Give the number; % is assumed, so skip it.

Please report the recorded inhibition for O=S1(=O)c2cccc3cccc(c23)N1CCCN1CCN(c2ccc(F)cc2)CC1 .
97.8

Repeat with Cc1nc(-c2ccc(-c3ccc(C(=O)N4CCc5cc6c(cc54)C4(CCN(C)CC4)CO6)cc3)c(C)c2)no1
27.9

Repeat with Clc1ccc(CCCOCCCN2CCCCC2)cc1
-2.04

Repeat with CN1CCC(=C2c3ccccc3CC(=O)c3sccc32)CC1
9.71

Repeat with Cc1cc(NC(=O)Nc2ccc(N(C)C)cc2)c2cc(F)cc(F)c2n1
3.42

Repeat with CNc1nc(NCc2ccc(NS(C)(=O)=O)cc2Cl)cc(-c2ccccn2)n1
8

* * *

test target: Histamine H2 receptor (Homo sapiens)
study conditions: Compound concentration 10 µM; call rule not given here
Allowed answers: T = active, F = inactive

Hi, do you know how c1ccc(N2CCN(Cc3nc4ccccc4[nH]3)CC2)nc1 came out in this test?
F

Repeat with N[C@H](C(=O)O)c1ccc(C(=O)O)c(C(=O)O)c1
F

Repeat with CCCCCNC(=O)NS(=O)(=O)c1cc([N+](=O)[O-])ccc1NC1CCCCC1
F

Repeat with N#Cc1c[nH]c2c(C(=O)N3CCN(CCc4ccc(F)cc4)CC3)cccc12
F

Repeat with Cc1cn2cc(CC(=O)N3CCC4(CC3)CN(Cc3ccc(-n5nccn5)cc3Cl)C4)nc2s1
T

Repeat with CS(=O)(=O)NC[C@H]1CC[C@H](Nc2nc3c(s2)CCSc2ccccc2-3)CC1
F

Repeat with CC[C@@H]1CN2C(=O)N(C)c3nc(-c4ccccc4)[nH]c3C2=N1
F

Repeat with Cc1cc(NC(=O)Nc2ccc(N(C)C)cc2)c2cc(F)cc(F)c2n1
F

Repeat with O=C(O)CC/C=C\C[C@@H]1CO[C@H](c2ccccc2Cl)O[C@@H]1c1ccccc1O
F

Repeat with C[C@H](Cc1cc2c(c(C(N)=O)c1)N(CCCO)CC2)NCCOc1ccccc1OCC(F)(F)F
F

Repeat with Nc1nc2c(c(N3CCNCC3)n1)CCC1=C2[C@@H]2CCCC[C@@H]2O1
F

Repeat with CCC[C@H](Oc1cc(C)c(-n2cc(C(F)(F)F)cn2)c(C)c1)c1ccc(C(=O)NCCC(=O)O)cc1
F

Repeat with Cc1ccc2c(c1)c1c(n2CCc2ccc(C)nc2)CCN(C)C1
T

Repeat with CN(C(=O)Cc1ccc(Cl)c(Cl)c1)C(CN1CCCC1)c1cccc(OCC(=O)O)c1 (stereo not drawn)
F

Repeat with FC(F)(F)c1cccc(-c2noc(-c3cc(-c4ccccc4)c(C(F)(F)F)s3)n2)c1
F

Repeat with Cc1c(P(=S)(c2ccccc2)c2ccccc2)n2ccccc2[n+]1C/C=C/c1ccccc1
T

Repeat with CC(C)(N)C(=O)N[C@H](COCc1ccccc1)C(=O)N1CCC2(CC1)CN(S(C)(=O)=O)c1ccccc12
F

Repeat with COc1ccc(NS(=O)(=O)c2sc3ccc(Cl)cc3c2C)cc1N1CCNCC1
F

Repeat with CCCCCNC(=N)N/N=C/c1c[nH]c2ccc(OC)cc12
F

Repeat with N#Cc1cccc(C(=O)Nc2cc(-c3ccccc3)nn2-c2ccccc2)c1
F

Repeat with Cc1cc(C)cc(-c2cnc3cc(Cl)c(-c4cccc(O)c4)cc3c2OCCCN)c1
T

Repeat with C[C@@H](NCCc1ccc(O)cc1)[C@@H](O)c1ccc(O)cc1 (relative stereo)
F

Repeat with CSc1ccc(C(=O)N[C@@H]2CCCC[C@@H]2NC(=O)CNC(=O)c2cc(C(F)(F)F)ccc2NC(=O)NC(C)C)cc1
F

* * *

test target: D(1A) dopamine receptor (Homo sapiens)
study conditions: Compound concentration 10 µM; call rule not given here
Allowed answers: 1 = active, 0 = inactive

Hi, do you know how COc1cccc([C@@H](C)NCCCc2ccccc2Cl)c1 came out in this test?
0

Repeat with CC(C)NCC(O)COc1cccc2[nH]ccc12 (stereo not given)
0

Repeat with Cc1ccc2c(c1)c1c(n2CCc2ccc(C)nc2)CCN(C)C1
0

Repeat with CC(C)(C(=O)O)c1ccc(C(O)CCCN2CCC(C(O)(c3ccccc3)c3ccccc3)CC2)cc1 (stereo not given)
0

Repeat with CCCCC#Cc1nc(NC)c2ncn([C@@H]3O[C@H](CO)[C@@H](O)[C@H]3O)c2n1
0

Repeat with Cc1nn(C)c(C)c1-c1cccc2c1CC[C@H](N(C)C)C2
0

Repeat with CCCCCNC(=O)NS(=O)(=O)c1cc([N+](=O)[O-])ccc1NC1CCCCC1
0

Repeat with Cc1nc(C(=O)N2CCC[C@H]2Cc2nnc(-c3ccccc3)o2)c(-c2ccccc2F)s1
0

Repeat with CN1C(=O)[C@@H](NC(=O)c2cc3ccccc3[nH]2)N=C(c2ccccc2)c2ccccc21
0

Repeat with Cc1ccccc1C(=O)Nc1ccc(C(=O)N2CCCC(O)c3cc(Cl)ccc32)c(C)c1 (stereo not given)
0

Repeat with COC(=O)[C@H]1[C@H]2C[C@H]3c4[nH]c5ccccc5c4CCN3C[C@H]2CC[C@@H]1O
0

Repeat with C/C(=N\NC(=O)[C@@H]1C(=O)NC[C@H]1c1ccccc1)c1cccc(Br)c1
0

Repeat with CN1CCCC(n2nc(Cc3ccc(Cl)cc3)c3ccccc3c2=O)CC1 (stereo not given)
1

Repeat with Cc1ccccc1N1CCN(S(=O)(=O)C[C@]23CC[C@H](C[C@@H]2NC(=O)[C@@H](N)CCS(C)(=O)=O)C3(C)C)CC1
0

Repeat with COC(=O)C1=C(C)NC(C)=C(C(=O)OCCCN2CCC(c3ccccc3)(c3ccccc3)CC2)[C@H]1c1cccc([N+](=O)[O-])c1
1

Repeat with N#Cc1c(O)nc(SCc2cccc(F)c2F)nc1C1CC1
0

Repeat with COc1ccc(NS(=O)(=O)c2sc3ccc(Cl)cc3c2C)cc1N1CCNCC1
0

Repeat with C[C@@H](NCCCc1cccc(C(F)(F)F)c1)c1cccc2ccccc12
0

Repeat with COc1ccc(OC(F)(F)F)cc1CN[C@H]1CCCN[C@H]1c1ccccc1
0

Repeat with CN(C)C(=O)C(CCN1CCC(O)(c2ccc(Cl)cc2)CC1)(c1ccccc1)c1ccccc1
0

* * *

test target: 5-hydroxytryptamine receptor 5A (Homo sapiens)
study conditions: Compound concentration 10 µM
Description: PDSP Primary Binding target: HTR5A - Compounds are tested at 10 uM concentration, plate are incubated at room temperature in the dark for 90 minutes. Reaction are stopped by vacuum filtration onto 0.3% polyethyleneimine soaked filter mats using Filtermate harvester. Scintilation cocktail is then melted onto microwave-dried filters on a hot plate and the radio activity is counted in Microbia counter.
Please go through the items and note down their inhibition.
Give the number; % is assumed, so skip it.

// lookup inhibition | system=5-hydroxytryptamine receptor 5A (Homo sapiens) | key= O=C(O)c1cc(-c2ccc(C3CCNCC3)cc2)c2ccc(-c3ccc(C(F)(F)F)cc3)cc2c1
69

Repeat with O=S1(=O)c2cccc3cccc(c23)N1CCCN1CCN(c2ccc(F)cc2)CC1
58.9

Repeat with COc1ccc2cc(S(=O)(=O)N[C@H](CC(=O)N[C@H](Cc3ccc(CN4[C@H](C)CCC[C@@H]4C)cc3)C(=O)N(C)C(C)C)c3ccc4c(c3)OCO4)ccc2c1
20.3

Repeat with Cc1c(C2=CCN(C(=O)N(C)C(C)C)CC2)nnn1-c1cccnc1F
7.43

Repeat with O=C(O)C1CN(Cc2ccc(OCc3ccc(Cl)c(Cl)c3)cc2)C1
23.4

Repeat with COc1cc(-n2cnc3cc(-c4ccc(Cl)cc4)sc3c2=O)ccc1OCCN1CCCC1
85.3

Repeat with COc1cccc(-c2c(C)n(Cc3c(F)cccc3C(F)(F)F)c(=O)n(C[C@H](NCCCC(=O)O)c3ccccc3)c2=O)c1F
35.8

Repeat with O=C(O)Cn1c(C(=O)Nc2nc(-c3ccccc3Cl)cs2)cc2ccccc21
18.6

Repeat with C[C@H](CO)Nc1nc(SCc2cccc(Cl)c2F)nc2[nH]c(=O)sc12
7.09
